test: absorption spectrum, light emission spectrum, molecular extinction coefficient and quantum efficiency in solvents; type: physicochemical; conditions: solvent PBS
Measurement Label: λem (nm)
Give just the numeric value; nm need not be written.

So what's the measured λem for this one? CC1(C)C2=C3C=C(CC(=O)[O-])C(=O)OC3CCN2c2ccc(S(=O)(=O)[O-])cc21.[Na+].[Na+] (stereo not drawn) [Compound 64]
503

Try CC1(C)C2=C3C=CC(=O)OC3CCN2c2ccc(S(=O)(=O)[O-])cc21.[Na+] (stereo not drawn) [Compound 3] next.
492

Next up: CC1(C)C2=C3C=C(CC(=O)O)C(=O)OC3CCN2c2ccccc21 (stereo not drawn) [Compound 63]
507
